Value source: patent US8202844B2

# System: herpes simplex virus type 1 (HSV-1)
# Assay Info: HSV-1 ELISA
# Format: cell-based, HSV-1 KOS strain in BSC-1 cells
# Condition Description: Human alphaherpesvirus 1; ELISA in BSC-1 cells; read-out: 50% Inhibitory Concentration, HSV-1 Activity
Recorded Endpoint: IC50 (µM)
Give bare numbers, in µM.

Q) Recorded IC50 for `COC(=N)c1c(Cl)n([C@@H]2O[C@H](CO)[C@@H](O)[C@H]2O)c2cc(Cl)c(Cl)cc12` , please?
A) 70
